Tested on: 292921-168-R-J2-PDC KRAS tumor spheroid viability;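 also: drug exposure lasted seven days after spheroids formed for three days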
assay overview: Anticancer human tumor 292921-168-R-J2-PDC patient-derived pancreatic carcinoma cell line growth inhibition [KRAS2]
experimental conditions: second compound 0.316 µM; first compound 10 µM; stronger effect = lower value; spheroids with HUVEC and MSC
Field 'label' (enum: YES / NO). Set to YES when viability, T/C is strictly under 20%; else NO.

Previously resolved entries follow.
[
  {
    "compound": "CC(C)NCC(C(=O)N1CCN(c2ncnc3c2C(C)CC3O)CC1)c1ccc(Cl)cc1 (stereo unspecified) + CNCc1ccccc1-c1csc(C(C)Nc2nc(C)nc3cc(OC)c(OC)cc23)c1",
    "classification": "NO"
  },
  {
    "compound": "Cn1nccc1Nc1nccc(-c2cc3c(s2)C(C)(C)N(CCN2CCOCC2)C3=O)n1 + C=CC(=O)N1CCN(c2nc(OCC3CCCN3C)nc3c2CCN(c2cccc4cccc(C)c24)C3)CC1CC#N",
    "classification": "YES"
  },
  {
    "compound": "CC1OCC2(CCN(c3cnc(Sc4ccnc(N)c4Cl)c(N)n3)CC2)C1N (stereo unspecified) + CNCc1ccccc1-c1csc(C(C)Nc2nc(C)nc3cc(OC)c(OC)cc23)c1",
    "classification": "NO"
  },
  {
    "compound": "COc1cc(Nc2ncc3c(n2)-c2ccc(Cl)cc2C(c2c(F)cccc2OC)=NC3)ccc1C(=O)O + C=CC(=O)N1CCN(c2nc(OCC3CCCN3C)nc3c2CCN(c2cccc4cccc(C)c24)C3)CC1CC#N",
    "classification": "YES"
  },
  {
    "compound": "O=C(c1cc(Cc2n[nH]c(=O)c3ccccc23)ccc1F)N1CCN(C(=O)C2CC2)CC1 + CC1OCC2(CCN(c3cnc(Sc4ccnc(N)c4Cl)c(N)n3)CC2)C1N",
    "classification": "NO"
  }
]

Please turn your attention to the following entry.
Q: Please check: viability, T/C for CC1OCC2(CCN(c3cnc(Sc4ccnc(N)c4Cl)c(N)n3)CC2)C1N (stereo unspecified) + C=CC(=O)N1CCN(c2nc(=O)n(-c3c(C)ccnc3C(C)C)c3nc(-c4c(O)cccc4F)c(F)cc23)C(C)C1 , strictly under 20% or not?
Ans: NO
